Each recorded value in this set is attributed to patent US12509431B2.

Tested on: Rabbit Skeletal myofibrils (rabbit psoas muscle)
experiment: Myofibril ATPase assay (PK/LDH NADH-coupled), skeletal myofibrils
Format: biochemical
conditionSummary: Table 8
I'd be grateful if you could share measured Rabbit Psoas IC25 for these entries.
Number first, unit second: that is the form wanted.

In the examples that follow, each entry is paired with its recorded Rabbit Psoas IC25.
INSERT INTO measurements (compound, result) VALUES
  ('Cc1nc(C#N)ncc1[C@@H](C)NC(=O)CN1C(=O)Nc2ccc(F)cc2C12CC2 [Compound B332]', '60 nM'),
  ('Cc1cc(C(C)NC(=O)CN2Cc3c(ccc(F)c3F)NC2=O)ncc1Cl (centres unmarked) [Compound B70]', '1912 nM'),
  ('N#Cc1cc(F)c2c(c1)OC[C@H]2NC(=O)CN1C(=O)Nc2ccc(F)c(F)c2C12CC2 [Compound B319]', '5960 nM'),
  ('C[C@H](NC(=O)[C@H](CC1CC1)N1Cc2c(ccc(F)c2F)NC1=O)c1ccc(F)cc1F [Compound B48]', '12650 nM'),
  ('CCc1cc(F)cnc1[C@@H](C)NC(=O)CN1Cc2c(ccc(F)c2F)NC1=O [Compound B14]', '93.4 nM');

Required: Rabbit Psoas IC25, one value per compound below.
1. Cc1nsc([C@H](C)NC(=O)CN2Cc3c(ccc(F)c3F)NC2=O)n1 [Compound B3]
2. C[C@H](NC(=O)CN1Cc2cc3c(cc2NC1=O)OCCO3)c1ncc(C#N)cc1F [Compound B277]
3. C[C@@H](NC(=O)CN1Cc2c(ccc(F)c2F)NC1=O)c1ncc(F)cc1Cl [Compound B36]
4. C[C@@H](NC(=O)CN1Cc2cc(F)c(F)cc2NC1=O)c1ccc(C#N)cc1F [Compound B44]
5. Cc1cccc2c1C1(CC1)N(CC(=O)N[C@H]1COc3cc(C#N)cc(F)c31)C(=O)N2 [Compound B313]
6. C[C@H](NC(=O)CN1C(=O)Nc2ccc(C#N)cc2C12CC2)c1ncc(F)cc1F [Compound B150]
7. C[C@H](NC(=O)CN1C(=O)Nc2ccccc2[C@@H]1C)c1ncc(F)cc1F [Compound B162]
8. C[C@H](NC(=O)CN1C(=O)Nc2ccc(F)cc2C12CC2)c1ccc(F)cc1F [Compound B221]

stdout:
1. 100000 nM
2. 100000 nM
3. 10.5 nM
4. 4901 nM
5. 9120 nM
6. 100000 nM
7. 703.9 nM
8. 17.4 nM

Required: Rabbit Psoas IC25, one value per compound below.
1. C[C@H](NC(=O)CN1Cc2cc(F)ccc2NC1=O)c1ncccc1F [Compound B174]
2. Cc1cc(F)cnc1[C@H](C)NC(=O)CN1Cc2c(ccc(F)c2F)NC1=O [Compound B39]
3. C[C@H](NC(=O)CN1Cc2c(F)cc(Cl)cc2NC1=O)c1ccc(C#N)cc1F [Compound B33]

stdout:
83000 nM
20.3 nM
9.3 nM

stdin: // returns reported Rabbit Psoas IC25 for input Cc1nc(C#N)cnc1[C@H](C)NC(=O)CN1C(=O)Nc2ccc(F)c(F)c2C12CC2 [Compound B326]
stdout: 20 nM

----------
Test system: Rabbit Skeletal myofibrils (rabbit psoas muscle)
experiment: Myofibril ATPase assay (PK/LDH NADH-coupled), skeletal myofibrils
Assay type: biochemical
conditionSummary: Table 8
readoutKind: Rabbit Psoas IC25 (nM)
Numbers only, in nM.

Required: Rabbit Psoas IC25, one value per compound below.
1. C[C@H](C(=O)N[C@@H](CO)c1ncc(F)cc1F)N1Cc2c(Cl)cccc2NC1=O [Compound B170]
2. C[C@@H](NC(=O)CN1Cc2c(F)cc(C#N)cc2NC1=O)c1ccc(C#N)cc1F [Compound B10]
3. N#Cc1cc(F)c2c(c1)OC[C@@H]2NC(=O)CN1Cc2c(ccc(F)c2F)NC1=O [Compound B124]
4. C[C@H](NC(=O)CN1Cc2c(ccc(F)c2C#N)NC1=O)c1ccc(C#N)cn1 [Compound B112]
5. [2H]C1([2H])c2c(ccc(F)c2F)NC(=O)N1CC(=O)N[C@H](C)c1ncc(C#N)cc1F [Compound B367]
6. CC(C)C[C@H](C(=O)N[C@H](C)c1ccc(F)cc1F)N1Cc2cc(F)ccc2NC1=O (single isomer, unassigned) [Compound B67]

stdout:
[9578, 29080, 326.2, 79, 780, 7017]

stdin: // returns reported Rabbit Psoas IC25 for input N#Cc1cnc2c(c1)CC[C@H]2NC(=O)CN1C(=O)Nc2ccc(F)cc2C12CC2 [Compound B294]
stdout: 1830
